- system_name: Cytochrome P450 3A4 (Homo sapiens) (UniProt P08684)
- Sequence (P08684 whole entry, looked up): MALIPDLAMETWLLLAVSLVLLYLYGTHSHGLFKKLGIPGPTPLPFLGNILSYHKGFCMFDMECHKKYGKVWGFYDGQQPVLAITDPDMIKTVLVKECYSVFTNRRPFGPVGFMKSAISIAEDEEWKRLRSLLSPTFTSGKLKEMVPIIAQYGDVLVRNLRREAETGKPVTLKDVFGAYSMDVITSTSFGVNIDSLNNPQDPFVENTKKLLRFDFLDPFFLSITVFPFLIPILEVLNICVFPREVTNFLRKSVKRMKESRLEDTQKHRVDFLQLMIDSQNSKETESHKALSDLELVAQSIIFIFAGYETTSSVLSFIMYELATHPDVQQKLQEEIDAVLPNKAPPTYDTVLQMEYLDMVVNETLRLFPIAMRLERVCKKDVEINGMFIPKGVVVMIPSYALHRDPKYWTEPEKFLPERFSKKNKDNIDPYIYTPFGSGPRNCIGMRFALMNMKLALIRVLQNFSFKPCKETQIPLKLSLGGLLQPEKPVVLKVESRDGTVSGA
- experiment_notes: Cytochrome panel assay with activity outcomes
- test_context: recombinant CYP, pro-luciferin dealkylation, luminescence, p450-cyp3a4; series mostly up to 57.1 µM
Hit rate of the full screen: of about 16,000 compounds, about 5,100 (32%) were called active. About 25% were inconclusive and are not listed. Calls come from the whole dose curve; as a rule, active = well fitted curve in the direction sought with a large enough effect; inconclusive = small, poorly fitted or top-dose-only effect, or effect the other way; inactive = no such curve, though single readings can be large or run the other way. This is one part of the list.
Classes used: active, inactive

>  <molecule>
C/C(CCN1CCCc2nc(C)c(C)cc21)=N\O[C@@H](C)CN1CCCCc2nc(C)c(C)cc21

>  <group>
active

$$$$
>  <molecule>
Nc1ccccc1Oc1ncc(C(F)(F)F)cc1Cl

>  <group>
active

$$$$
>  <molecule>
COc1ccc(C(=O)N/N=C/c2cccc3cccnc23)cc1

>  <group>
active

$$$$
>  <molecule>
CCCNC(=O)OC[C@@H]1O[C@H](CCO/N=C(\C)CCN2CCCc3nc(C)c(C)cc32)C=C[C@@H]1Oc1ccc(OC)cc1

>  <group>
active

$$$$
>  <molecule>
COc1ccc2c(c1)CCC1[C@@H]2CCC2(C)[C@@H](NCCCCCCN3C(=O)C=CC3=O)CC[C@@H]12 (stereo partly specified)

>  <group>
inactive

$$$$
>  <molecule>
COc1ccccc1NC(=O)CSc1nc2ccccc2cc1Cc1ccccc1

>  <group>
active

$$$$
>  <molecule>
Cc1cccc(C2NC(=O)c3c(sc(C)c3C)N2)c1O (stereo unspecified)

>  <group>
active

$$$$
>  <molecule>
CCCCOc1ccccc1N

>  <group>
inactive

$$$$
>  <molecule>
COC(=O)[C@@]1(Cc2ccc(F)cc2)[C@@H]2[C@@H](CC(=O)[C@H]2CC(=O)C(=O)N(C)C)CN1C(=O)c1ccccc1

>  <group>
active

$$$$
>  <molecule>
CCCC(O)(CCC)C(=O)NN1CCCCC1

>  <group>
inactive

$$$$
>  <molecule>
O=c1[nH]c(=S)[nH]nc1Cc1ccccc1

>  <group>
inactive

$$$$
>  <molecule>
COc1ccc2c(c1OC)C(=O)N(C(C)C(=O)O)C2=O (stereo unspecified)

>  <group>
inactive

$$$$
>  <molecule>
C/C(CCN1CCCCc2nc(C)c(C)cc21)=N\O[C@@H](C)c1cc(-c2c(C)cc(C)cc2C)no1

>  <group>
active

$$$$
>  <molecule>
CCC[C@H]1C(=O)N2C(N(C)C)=Nc3ccc(C)cc3N2C1=O

>  <group>
inactive

$$$$
>  <molecule>
FC(F)(F)c1nc2ccccc2nc1N/N=C\c1ccccc1

>  <group>
active

$$$$
>  <molecule>
C/C(CCN1CCc2nc(-c3ccccc3)c(-c3ccccc3)cc2C1)=N\O[C@@H](C)CN1CCCCc2nc(C)c(C)cc21

>  <group>
active

$$$$
>  <molecule>
CCN1C(=O)C2(SC(NC(C)=O)=NN2C(C)=O)c2cc(C)ccc21 (stereo unspecified)

>  <group>
inactive

$$$$
>  <molecule>
COC(=O)c1ccc(C2C(Oc3ccccc3)C(=O)N2CCc2ccc(OC)c(OC)c2)cc1 (stereo unspecified)

>  <group>
active

$$$$
>  <molecule>
CC(C)N1CCN(c2ccncc2S(=O)(=O)N2CCCCC2)CC1

>  <group>
active

$$$$
>  <molecule>
Cc1cccc(OCC(=O)NNC(=O)CSc2ncc(C#N)c(N)n2)c1

>  <group>
active

$$$$
>  <molecule>
CCCCCn1c(SCc2ccncc2)nc2cc(C(=O)NCc3ccco3)ccc2c1=O

>  <group>
active

$$$$
>  <molecule>
FC(F)(F)c1ccccc1-c1nc(NCc2cccs2)c2ccccc2n1

>  <group>
active

$$$$
>  <molecule>
C[C@@H](C(=O)NCCF)[C@H]1C[C@]1(C)[C@H](NC(=O)OCc1ccccc1)c1ccccc1

>  <group>
active

$$$$
>  <molecule>
COc1ccc(CCN2C(=O)C(Oc3ccccc3C)C2c2ccc3c(c2)OCO3)cc1OC (stereo unspecified)

>  <group>
active

$$$$
>  <molecule>
O=C(O)CCCCCn1c(SCC(=O)N2CCCC2)nc2ccsc2c1=O

>  <group>
inactive

$$$$
>  <molecule>
COc1cc(C(=O)Oc2ccccc2/C=N/NC(=O)c2ccc(C)cc2)cc(OC)c1OC

>  <group>
inactive

$$$$
>  <molecule>
Cc1cccc(C)c1NC(=O)[C@H](C)N

>  <group>
inactive

$$$$
>  <molecule>
CCn1c(SCC(=O)Nc2sc3c(c2C#N)CCC(C(C)(C)C)C3)nnc1-c1ccco1 (stereo unspecified)

>  <group>
inactive

$$$$
>  <molecule>
Cn1c(Sc2ccc(-c3cccnc3)n2C)ccc1-c1cccnc1

>  <group>
active

$$$$
>  <molecule>
CCN(C(=O)CSc1nc2cc(C(=O)OC)ccc2c(=O)n1Cc1ccco1)c1cccc(C)c1

>  <group>
inactive

$$$$
>  <molecule>
CCS(=O)(=O)N1CCC(C(=O)NCc2ccco2)CC1

>  <group>
inactive

$$$$
>  <molecule>
CC(C)N(CCNC(=O)C1CCC(=O)N1Cc1ccc(F)cc1)Cc1ccccc1 (stereo unspecified)

>  <group>
inactive

$$$$
>  <molecule>
COC(=O)[C@@]1(Cc2ccc(F)cc2)[C@H]2c3cc(C(=O)N4CCCC4)n(Cc4ccc(Cl)c(C(F)(F)F)c4)c3C[C@H]2CN1C(=O)c1ccccc1

>  <group>
active

$$$$
>  <molecule>
CSc1nnc(-c2sccc2OCc2ccccc2)n1C

>  <group>
inactive

$$$$
>  <molecule>
Cc1ccc(C)n1C(Cc1ccccc1)C(=O)O (stereo unspecified)

>  <group>
inactive

$$$$
>  <molecule>
O=C(C(Cc1ccccc1)N1C(=O)C2C3CCC(C3)C2C1=O)N1CCCCC1 (stereo unspecified)

>  <group>
active

$$$$
